- TARGET OF ASSAY: recombinant human enteropeptidase (Homo sapiens (Human), UniProt P98073)
- Sequence (P98073 whole entry): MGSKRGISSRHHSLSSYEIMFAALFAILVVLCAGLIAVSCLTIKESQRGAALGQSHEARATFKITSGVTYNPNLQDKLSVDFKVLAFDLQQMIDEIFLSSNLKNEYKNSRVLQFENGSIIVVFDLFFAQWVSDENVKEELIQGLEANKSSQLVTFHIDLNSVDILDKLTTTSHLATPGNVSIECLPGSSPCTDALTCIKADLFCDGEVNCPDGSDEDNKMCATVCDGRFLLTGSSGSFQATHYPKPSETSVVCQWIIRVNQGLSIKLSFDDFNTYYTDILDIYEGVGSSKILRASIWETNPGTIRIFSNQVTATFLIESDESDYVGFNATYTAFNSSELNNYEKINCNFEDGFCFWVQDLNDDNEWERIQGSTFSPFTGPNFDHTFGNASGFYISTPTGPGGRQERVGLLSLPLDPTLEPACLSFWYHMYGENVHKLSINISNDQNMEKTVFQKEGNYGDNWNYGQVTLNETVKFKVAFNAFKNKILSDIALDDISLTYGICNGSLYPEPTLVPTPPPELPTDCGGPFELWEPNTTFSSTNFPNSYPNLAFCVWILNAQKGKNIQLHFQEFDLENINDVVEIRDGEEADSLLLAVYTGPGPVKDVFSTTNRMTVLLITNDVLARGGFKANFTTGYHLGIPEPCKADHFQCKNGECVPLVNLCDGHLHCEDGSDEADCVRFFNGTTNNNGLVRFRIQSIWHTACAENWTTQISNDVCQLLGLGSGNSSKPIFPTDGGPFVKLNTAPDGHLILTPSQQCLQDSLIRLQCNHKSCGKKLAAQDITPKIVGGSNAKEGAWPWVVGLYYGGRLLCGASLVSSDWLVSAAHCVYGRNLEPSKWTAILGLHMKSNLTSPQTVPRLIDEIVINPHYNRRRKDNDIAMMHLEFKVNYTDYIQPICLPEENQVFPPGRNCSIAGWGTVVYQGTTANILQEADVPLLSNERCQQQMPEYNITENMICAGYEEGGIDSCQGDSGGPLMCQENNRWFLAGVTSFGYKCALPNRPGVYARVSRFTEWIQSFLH
- TEST DESCRIPTION: Measurement of enteropeptidase inhibitory activity
- TEST SETTINGS: Dixon plot
Where a name gives a salt, the structure may show the parent alone.
METRIC: Ki (nM)

Worked cases, answers included:
CC(Cc1ccc(C(=O)Oc2ccc(C(=N)N)cc2)o1)C(=O)N[C@H](CCC(=O)O)C(=O)O (stereo partly shown) = 0.57
CC(Cc1ccc(C(=O)Oc2ccc(C(=N)N)cc2)o1)S(=O)(=O)O (stereo not shown) [Compound A-36, trifluoroacetic acid salt] = 0.58

A. CC(Cc1ccc(C(=O)Oc2ccc(C(=N)N)cc2F)s1)C(=O)N[C@@H](CC(=O)O)C(=O)O (stereo partly shown)
B. CC(CCC(=O)O)Cc1ccc(C(=O)Oc2ccc(C(=N)N)cc2)s1 (stereo not shown)
Prompt: Identify the entry with the larger Ki. Options: A and B Respond using the label that marks the chosen record.
Response: B
(B: 2.5 nM, A: 0.28 nM)

---

- TARGET OF ASSAY: recombinant human enteropeptidase (Homo sapiens (Human), UniProt P98073)
- TEST DESCRIPTION: Measurement of enteropeptidase inhibitory activity
- TEST SETTINGS: Dixon plot
pKi: −log10 of the molar value. Counter-ions that a name gives are not always drawn.
METRIC: pKi

I. N=C(N)c1ccc(OC(=O)c2ccc(-c3ccc(C(=O)N[C@@H](CC(=O)O)C(=O)O)s3)s2)cc1 [Compound B-59, trifluoroacetic acid salt]
II. CC(Cc1ccc(C(=O)Oc2ccc(C(=N)N)c(F)c2)s1)C(=O)O (stereo not shown)
III. C/C(=C\c1ccc(C(=O)Oc2ccc(C(=N)N)cc2)o1)C(=O)NCC(=O)O
IV. CCC[C@H](Cc1ccc(C(=O)Oc2ccc(C(=N)N)cc2F)s1)C(=O)N[C@@H](CC(=O)O)C(=O)O
Prompt: Which order do these fall in by pKi? Give them lowest to highest. Write the labels out in the order the request specifies.
Response: I, III, IV, II

1. CC(Cc1cc(C(=O)Oc2ccc(C(=N)N)cc2F)cs1)C(=O)N[C@@H](CC(=O)O)C(=O)O (stereo partly shown)
2. C=CCN(CC(=O)O)C(=O)CCc1ccc(C(=O)Oc2ccc(C(=N)N)cc2)o1 [Compound A-55, trifluoroacetic acid salt]
Prompt: Pick one, 1 or 2 : lowest reported pKi. Respond using the label that marks the chosen record.
Response: 2
(2: 8.89, 1: 9.41)

---

- TARGET OF ASSAY: recombinant human enteropeptidase (Homo sapiens (Human), UniProt P98073)
- TEST DESCRIPTION: Measurement of enteropeptidase inhibitory activity
- TEST SETTINGS: Dixon plot
pKi: −log10 of the molar value. Where a name gives a salt, the structure may show the parent alone.
METRIC: pKi

Worked cases, answers included:
CC(Cc1ccc(C(=O)Oc2ccc(C(=N)N)cc2)o1)C(=O)N[C@H](C(=O)O)C(C)O (stereo partly shown) [Compound A-16] = 8.73
CC(CCC(=O)N[C@@H](CC(=O)O)C(=O)O)Cc1ccc(C(=O)Oc2ccc(C(=N)N)cc2)o1 (stereo partly shown) [Compound A-59, trifluoroacetic acid salt] = 9.46
C[C@H](Cc1ccc(C(=O)Oc2ccc(C(=N)N)cc2F)s1)C(=O)N[C@@H](CC(=O)O)C(=O)O [Compound B-25, trifluoroacetic acid salt] = 9.10

A. C[C@H](Cc1ccc(C(=O)Oc2ccc(C(=N)N)cc2)o1)C(=O)N[C@@H](CC(N)=O)C(=O)O [Compound A-22]
B. CC(Cc1ccc(C(=O)Oc2ccc(C(=N)N)cc2F)s1)C(=O)N1CCCC(C(=O)O)C1 (stereo not shown) [Compound B-34]
Prompt: Identify the entry with the larger pKi. Options: A and B Respond using the label that marks the chosen record.
Response: A
(A: 9.02, B: 8.66)

---

- TARGET OF ASSAY: recombinant human enteropeptidase (Homo sapiens (Human), UniProt P98073)
- TEST DESCRIPTION: Measurement of enteropeptidase inhibitory activity
- TEST SETTINGS: Dixon plot
pKi: −log10 of the molar value. Structures can show the parent of a compound that is named as a salt.
METRIC: pKi

CC(Cc1ccc(C(=O)Oc2ccc(C(=N)N)cc2)o1)C(=O)N[C@@H](CS(=O)(=O)O)C(=O)O (stereo partly shown) [Compound A-57] = 9.41
CC(Cc1ccc(C(=O)Oc2ccc(C(=N)N)cc2)o1)C(=O)N[C@@H](CCC(=O)O)C(=O)O (stereo partly shown) [Compound A-15] = 8.79
N=C(N)c1ccc(OC(=O)c2ccc(-c3ccc(C(=O)N[C@@H](CC(=O)O)C(=O)O)cc3)s2)cc1 [Compound B-56] = 8.02
C/C(=C\c1ccc(C(=O)Oc2ccc(C(=N)N)cc2[N+](=O)[O-])s1)C(=O)O [Compound B-8] = 9.08

P. CC(Cc1ccc(C(=O)Oc2ccc(C(=N)N)cc2)o1)C(=O)N(CC(=O)O)CC(=O)O (stereo not shown) [Compound A-26]
Q. CC(Cc1ccc(C(=O)Oc2ccc(C(=N)N)cc2)o1)C(=O)NCCc1ccccc1 (stereo not shown) [Compound A-47, trifluoroacetic acid salt]
R. CC(Cc1ccc(C(=O)Oc2ccc(C(=N)N)cc2Cl)s1)C(=O)N[C@@H](CS(=O)(=O)O)C(=O)O (stereo partly shown) [Compound B-44]
Prompt: Put the entries in order of pKi, starting with the largest number. Write the labels out in the order the request specifies.
Response: R, P, Q
(R: 9.68, P: 9.17, Q: 8.72)

---

- TARGET OF ASSAY: recombinant human enteropeptidase (Homo sapiens (Human))
- TEST DESCRIPTION: Measurement of enteropeptidase inhibitory activity
- Format: biochemical
- TEST SETTINGS: Dixon plot
pKi: −log10 of the molar value. Counter-ions that a name gives are not always drawn.
METRIC: pKi

Worked cases, answers included:
N=C(N)c1ccc(OC(=O)c2ccc(CC(=O)N[C@@H](CC(=O)O)C(=O)O)s2)c(F)c1 [Compound B-60, trifluoroacetic acid salt] = 9.19
C/C(=C\c1ccc(C(=O)Oc2ccc(C(=N)N)cc2)o1)C(=O)N(CCCO)CC(=O)O [Compound A-7] = 8.83
CC(Cc1ccc(C(=O)Oc2ccc(C(=N)N)cc2)o1)C(=O)N[C@@H](CO)C(=O)O (stereo partly drawn) [Compound A-5] = 8.86

I. N=C(N)c1ccc(OC(=O)c2ccc(CCC(=O)O)o2)cc1 [Compound A-37]
II. CC(Cc1ccc(C(=O)Oc2ccc(C(=N)N)cc2[N+](=O)[O-])s1)C(=O)N(CCCO)CC(=O)O (stereo not drawn) [Compound B-11, hydrochloride]
Prompt: Identify the entry with the larger pKi. Options: I and II Respond using the label that marks the chosen record.
Response: I
(I: 9.19, II: 8.85)

---

- TARGET OF ASSAY: recombinant human enteropeptidase (Homo sapiens (Human), UniProt P98073)
- TEST DESCRIPTION: Measurement of enteropeptidase inhibitory activity
- TEST SETTINGS: Dixon plot
Where a name gives a salt, the structure may show the parent alone.
METRIC: Ki (nM)

Worked cases, answers included:
CC(Cc1cc(C(=O)Oc2ccc(C(=N)N)cc2)co1)C(=O)N[C@@H](CS(=O)(=O)O)C(=O)O (stereo partly drawn) [Compound A-65] = 1
CC(CCC(=O)O)Cc1ccc(C(=O)Oc2ccc(C(=N)N)cc2)o1 (stereo not drawn) [Compound A-58, trifluoroacetic acid salt] = 0.7
CC(C)C[C@@H](Cc1ccc(C(=O)Oc2ccc(C(=N)N)cc2F)s1)C(=O)N[C@@H](CC(=O)O)C(=O)O [Compound B-27] = 0.95
N=C(N)c1ccc(OC(=O)c2csc(CCC(=O)N[C@@H](CC(=O)O)C(=O)O)c2)c(F)c1 [Compound B-54, trifluoroacetic acid salt] = 0.58

1. C/C(=C\c1ccc(C(=O)Oc2ccc(C(=N)N)cc2)o1)C(=O)O [Compound A-3, trifluoroacetic acid salt]
2. CC(Cc1ccc(C(=O)Oc2ccc(C(=N)N)cc2)o1)C(=O)O (stereo in doubt) [Compound A-42, trifluoroacetic acid salt]
Prompt: Pick one, 1 or 2 : lowest reported Ki. Respond using the label that marks the chosen record.
Response: 2
(2: 0.71 nM, 1: 1.15 nM)

---

- TARGET OF ASSAY: recombinant human enteropeptidase (Homo sapiens (Human))
- TEST DESCRIPTION: Measurement of enteropeptidase inhibitory activity
- TEST SETTINGS: Dixon plot
Structures can show the parent of a compound that is named as a salt.
METRIC: Ki (nM)

Worked cases, answers included:
CC(Cc1ccc(C(=O)Oc2ccc(C(=N)N)cc2F)o1)C(=O)O (stereo not shown) = 0.65
CC(Cc1ccc(C(=O)Oc2ccc(C(=N)N)cc2)o1)C(=O)O (stereo not shown) [Compound A-6, trifluoroacetic acid salt] = 0.62

I. N=C(N)c1ccc(OC(=O)c2ccc(CCC(=O)N[C@@H](CCC(=O)O)C(=O)O)s2)c(F)c1
II. CC(CCC(=O)N[C@@H](CC(=O)O)C(=O)O)Cc1ccc(C(=O)Oc2ccc(C(=N)N)cc2)s1 (stereo partly shown)
Prompt: Pick one, I or II : lowest reported Ki. Respond using the label that marks the chosen record.
Response: I
(I: 0.57 nM, II: 0.89 nM)
